These entries and their values trace back to the supplement of paper PMC12645437.

Quick list: log2 fold change of degron read counts per entry.
Molecular target: T1, CRBN, Q96SW2;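 further: pooled lentiviral library of zinc finger degron-EGFP fusions in mCherry-positive Jurkat cells, FACS-sorted after compound exposure, with degron abundance counted by next-generation sequencing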
T1 chain: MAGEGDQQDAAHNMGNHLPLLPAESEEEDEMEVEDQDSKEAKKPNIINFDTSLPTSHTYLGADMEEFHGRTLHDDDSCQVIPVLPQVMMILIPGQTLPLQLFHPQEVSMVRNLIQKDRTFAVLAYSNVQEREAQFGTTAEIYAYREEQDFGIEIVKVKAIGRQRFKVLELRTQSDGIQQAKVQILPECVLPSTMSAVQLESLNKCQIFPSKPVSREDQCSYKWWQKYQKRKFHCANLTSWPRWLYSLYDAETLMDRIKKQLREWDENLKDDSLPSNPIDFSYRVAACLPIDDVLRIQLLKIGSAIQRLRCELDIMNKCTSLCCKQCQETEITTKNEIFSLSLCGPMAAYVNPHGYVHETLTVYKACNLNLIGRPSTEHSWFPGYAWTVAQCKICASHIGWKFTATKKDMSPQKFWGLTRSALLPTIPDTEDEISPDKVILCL
Assay: log2 fold change of degron read counts, EGFP-low vs EGFP+ sorted cells (limma voom), compound-induced degradation; higher = more compound-induced degradation of the degron-EGFP fusion; degrons are variants of IKZF1/3 zinc finger 2; compound dose not given here
Conditions: Jurkat; 18 h; compound: thalidomide
Whole data set: some 8,300 sequences, median “log2 fold change of degron read counts, EGFP-low vs EGFP+ sorted cells (limma voom), compound-induced degradation” near -1.1, cut for the highest 2% near 3.2. The sample as a whole holds a higher share of the highest values than the screen did.
Please give the numeric answer without any surrounding text.

Observe how each entry below is paired with its result.
| Residue Codes | Reported |
| --- | --- |
| FWCNVCGAPFTQKGNLLRHIKL [46F_47W_49N_50V_52G_53A_54P_55F_67L_, Q9UKT9] | -0.594 |
| LTCEICGFWCTQKGNLLRHIKL [46L_47T_49E_50I_52G_53F_54W_55C_67L_, Q9UKT9] | 0.539 |
| LVCPICGFPCTQKGNLLRHIKL [46L_47V_49P_50I_52G_53F_54P_55C_67L_, Q9UKT9] | 1.9 |
| FVCNQCGHRFTQKGNLLRHIKL [46F_47V_49N_50Q_52G_53H_54R_55F_67L_, Q9UKT9] | -2.33 |

Give the measured log2 fold change of degron read counts for FVCPICGAYFTQKGNLLRHIKL [46F_47V_49P_50I_52G_53A_54Y_55F_67L_, Q9UKT9] 2.59

Give the measured log2 fold change of degron read counts for FQCPICGHTFTQKGNLLRHIKL [46F_47Q_49P_50I_52G_53H_54T_55F_67L_, Q9UKT9] 0.116

Give the measured log2 fold change of degron read counts for FICEICGAAFTQKGNLLRHIKL [46F_47I_49E_50I_52G_53A_54A_55F_67L_, Q9UKT9] 3.09

Give the measured log2 fold change of degron read counts for FYCPICGAYFTQKGNLLRHIKL [46F_47Y_49P_50I_52G_53A_54Y_55F_67L_, Q9UKT9] 1.01

Give the measured log2 fold change of degron read counts for FYCPVCGAKFTQKGNLLRHIKL [46F_47Y_49P_50V_52G_53A_54K_55F_67L_, Q9UKT9] 0.354

Give the measured log2 fold change of degron read counts for FNCNQCGRFFTQKGNLLRHIKL [46F_47N_49N_50Q_52G_53R_54F_55F_67L_, Q9UKT9] -1.6
